# Target entity: T1, FGR SH2 domain (human, UniProt P09769 144-241)
# T1 construct: FGR, human; source: bacterial expression, purified
# Assay: peptide or protein array; SH2/PTB proteins spotted on aldehyde slides, rhodamine peptide titrated in buffer B (20 mM HEPES, 100 mM KCl, 0.1% Tween-20, 5 mM DTT, pH 7.8), 1 h at room temperature; replicate assays
# Assay conditions: both partners purified
Non-standard residues stand in square brackets, D forms with d. No end group written: not given here. pY = N[C@@H](Cc1ccc(OP(=O)(O)O)cc1)C(=O)O; Rhodamine = not defined here
Measured property: Kd
# answer = value followed by unit

Entry Rhodamine-ETDG[pY]VAPLTCSD (reading uncertain) [ErbB2 pY1127 phosphopeptide, rhodamine-labelled, for protein microarrays] ; Kd = 5.18 µM
